All values here come from paper PMC5540273.

test system: FYN; conditions: concentration: 1 μM, replicates: in singlicate; n = 1;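 further: KINOMEscan kinase panel screen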
I'd be grateful if you could share measured %Inh for these entries.
Respond with the bare value in %.

QUERY: Entry under review: Nc1ncnc2c1ncn2-c1cccc2ccccc12 . Reported %Inh?
RESULT: 0

QUERY: COc1ccc(-c2cc3c(C)nc(N)nc3n([C@H]3CC[C@H](O)CC3)c2=O)cn1 ?
RESULT: 0

QUERY: And the next one, CN1C(=O)C(Nc2cc(Cl)c(O)c(Cl)c2)=C(c2ccc(Cl)cc2)C1=O ?
RESULT: 0

QUERY: Try the compound Nc1n[nH]c2nnc(-c3ccccc3)c(-c3ccccc3)c12
RESULT: 2

QUERY: Next entry: Cc1ccc(-c2ccc3c(ccc4sc5c(c43)NC[C@@H](C)N=C5N(C)C)n2)cn1
RESULT: 0

QUERY: Field entry: CC(C)(C)c1ccc(C(=O)Nc2cn3cc(-c4ccccc4)ccc3n2)cc1
RESULT: 0

QUERY: Cool, now COc1cc(Nc2nccc(N3CCC(NC(=O)C(C)c4ccc(Cl)cc4)C3)n2)cc(OC)c1OC (stereo not drawn)
RESULT: 0

QUERY: Please do the same for COc1ccc(-n2cnc3c(N)ncnc32)cc1 as well.
RESULT: 25

QUERY: Query COc1cc(OC)cc(-c2cc3cnc(N)nc3nc2NC(=O)NC(C)(C)C)c1 next
RESULT: 1

QUERY: # iterate: CCc1ccc(-c2ccc3c(c2)-c2nn(C)cc2S(=O)(=O)N3C)cc1
RESULT: 5

QUERY: # repeat for CCC(=O)c1c(-c2ccccc2)c2cc(Cl)ccc2c(=O)n1Cc1cc(S(C)(=O)=O)n(CCC(C)(C)O)n1
RESULT: 10

QUERY: Also need COc1cc2nccc(Nc3cccc(Oc4ccccc4)c3)c2cc1OC.Cl , thanks.
RESULT: 36

QUERY: Field entry: OCCCNc1nccc(-c2c(-c3cccc(C(F)(F)F)c3)nn3cc(C(F)(F)F)ccc23)n1
RESULT: 0

QUERY: What about this compound? Nc1nc(N)c2nc(-c3ccccc3)[nH]c2n1
RESULT: 0

QUERY: Subsequent entry: COc1cc2nccc(Nc3ccc(OCc4ccc(NC(C)=O)cc4)cc3)c2cc1OC.Cl
RESULT: 1

QUERY: Next: Nc1n[nH]c2ncc(-c3ccccc3)cc12
RESULT: 26

QUERY: Another: Nc1nccc2scc(-c3ccc4c(c3)CCN4C(=O)Cc3ccccc3)c12
RESULT: 33

QUERY: One more compound: CCC(=O)c1c(-c2ccccc2)c2cc(Cl)ccc2c(=O)n1Cc1cc(C(=O)NC2CC2)n(C)n1
RESULT: 0

----------
tested on: DRAK2; construct: gene STK17B; conditions: concentration: 1 μM, replicates: in singlicate; n = 1
Attribute Measured: %Inh (%)
// note: answer is a bare numeric in %

QUERY: Any idea what %Inh came out for COc1cc2nccc(Nc3cccc(Oc4ccccc4)c3)c2cc1OC.Cl on DRAK2?
RESULT: 26

QUERY: Request: Cc1nnc(-c2ccc(C)c(-c3ccc(C(=O)O)cc3)c2)o1
RESULT: 1

QUERY: Then this compound: COc1cc(Nc2nccc(N3CCC(NC(=O)C4COc5ccccc5O4)C3)n2)cc(OC)c1OC (stereo not drawn)
RESULT: 0

QUERY: Another compound to look at: CCc1nc(-c2cccc(C)c2)c(-c2ccncc2)s1
RESULT: 0

QUERY: How about this compound: CCC(=O)c1c(-c2ccccc2)c2cc(Cl)ccc2c(=O)n1Cc1ccc(C(=O)O)cc1
RESULT: 2

QUERY: Repeat with COc1cc2ncn(-c3cc(OCc4ccc(S(C)(=O)=O)cc4)c(C(N)=O)s3)c2cc1OC
RESULT: 23

QUERY: Entry COC(=O)c1c(-c2ccccc2)c2cc(Br)ccc2c(=O)n1Cc1ccc(NC(=O)CCC(=O)O)cc1 please
RESULT: 0

QUERY: Check O=C(Nc1n[nH]c2nc(-c3ccccc3)c(Br)cc12)C1CC1 too.
RESULT: 0

QUERY: Follow-up item: CCCC(=O)Nc1n[nH]c2ncc(-c3cccc4ccccc34)cc12
RESULT: 0
